# measurement-notes: Restrictive medium S. cerevisiae growth inhibition, OD615, pilot screen of yeast lifespan reduction project, restrictive growth control (AID 706);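 also: modified DeaD lifespan yeast strain shifted to restrictive glucose medium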
# settings: OD615, 48 h, at 10 µM, hits give high values
Activity calls are given as the source filed them.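 The calls were made as follows: active = growth inhibition above a set limit, 3 SD over mean compound inhibition, in both replicates (cut at about 43% in these data); inconclusive = above the limit in only one replicate; inactive = at or below the limit in both replicates.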
Would you mind telling me the reported growth inhibition of each entry?

Worked cases, growth inhibition given:
> print(dat)
                                   compound        test.result
1  COc1ccc(C2NC(=O)NC(C)=C2C(=O)Nc2cccc(C)c2C)cc1 (stereo unspecified)   1.47% (inactive)
2  Cc1onc(-c2ccccc2Cl)c1C(=O)Nc1ccccc1C(N)=O  -29.5% (inactive)
3      Cc1ccc(Cl)cc1N1CCN(C(=O)CCC(=O)O)CC1  -29.2% (inactive)
4  CCOC(=O)N1CCN(C(=O)CSc2nc3c(cnn3-c3ccccc3)c(=O)[nH]2)CC1   -4.3% (inactive)
5  O=C(CN(Cc1ccc(F)cc1)S(=O)(=O)c1ccccc1)N1CCCCC1  -3.51% (inactive)

I would be grateful if you could provide growth inhibition for each of the following entries.
1. O=C(NC1CCCCCC1)c1nnc(Cc2ccc(Cl)cc2)o1
2. C1=C(N2CCOCC2)/C(=C/c2nc3ccccc3[nH]2)CC1
3. COc1ccc(Cc2nnc(Nc3ccc(C)cc3C)[nH]c2=O)cc1
4. Cc1ccc(C)c(NC(=O)CS(=O)(=O)c2c[nH]c3ccccc23)c1
5. COc1cc(SC)ccc1C(=O)Nc1ccc2c(c1)OCCO2
6. COc1ccc(C2C(C(=O)c3cccs3)=C(O)C(=O)N2c2nnc(C)s2)cc1OC (stereo unspecified)

OUTPUT:
1: 0.195% (inactive); 2: 19.2% (inactive); 3: -12.6% (inactive); 4: -31.9% (inactive); 5: -4.97% (inactive); 6: 9.11% (inactive)

###

# measurement-notes: inhibitors of the yeast RAM network, pilot screen, dse1pr::URA3 reporter, 5-FOA selection (AID 869);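 also: 0% = DMSO wells with no growth and 100% = 10 µM 1-NA-PP1 with full growth; RAM network block rescues cells from 5-FOA so hits raise OD615 growth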
# settings: S. cerevisiae dse1pr::URA3 5-FOA growth, OD615, 2 d; at 10 µM; hits give high values; strain carries analog-sensitive mutant Cbk1 kinase
Would you mind telling me the reported inhibition of each entry?
Numbers only, in %.

> print(dat)
                                   compound  assay.readout  test.result
1     Cc1c(C(=O)N2CCC(C(N)=O)CC2)sc(N)c1C#N     inhibition         2.91
2  COc1ccc(S(=O)(=O)Cc2ccc(C(=O)NCc3cccnc3)o2)cc1     inhibition            1
3  COc1ccc(-c2nc(CSCC(=O)N3CCN(C4CCCCC4)CC3)c(C)o2)cc1OC     inhibition         1.04
4           CCOC(=O)c1c(N)sc2c(O)c(Br)ccc12     inhibition         1.01
5  O=C(C1CC1)N1CCc2cc(Br)cc(S(=O)(=O)NCc3ccccn3)c21     inhibition         1.32

I would be grateful if you could provide inhibition for each of the following entries.
1. Clc1ccc(CCNc2ncnc3nc[nH]c23)cc1
2. CCCCN=C(C)c1c(O)c2ccccc2oc1=O
3. O=C(C1CCCN(c2nnc(-n3cccc3)s2)C1)N1CCN(c2ccccc2)CC1 (stereo not drawn)
4. CCN1CCN(C(=O)c2cc3c(s2)-c2ccccc2S(=O)(=O)C3)CC1

OUTPUT:
1. -0.895
2. 0.01
3. 0.485
4. 2.36

I would be grateful if you could provide inhibition for each of the following entries.
1. Oc1ccccc1-c1nnc(COc2ccccc2)o1
2. COc1ccc(-c2nc(C#N)c(NC(C)C)o2)cc1
3. CCOC(=O)c1ccc(CSc2n[nH]c(C)n2)o1

OUTPUT:
1.24
2.67
-1.18

I would be grateful if you could provide inhibition for each of the following entries.
1. Cc1nc2ccccc2c2oc(C(=O)NCCN3CCN(C)CC3)cc12
2. CC1CC=C2C(C#N)=C(N)C(C#N)(C#N)C(c3cccs3)C2C1 (stereo not drawn)
3. CCOc1cc(CN2CCSCC2)ccc1O
4. Cc1ccc(C2c3c(oc4ccc(C)cc4c3=O)C(=O)N2CCCN2CCOCC2)cc1 (stereo not drawn)
5. CCS(=O)(=O)N1CCN(c2cccc(C)c2C)CC1

OUTPUT:
1: 1.64; 2: 2.66; 3: 0.825; 4: 0.99; 5: 2.35

I would be grateful if you could provide inhibition for each of the following entries.
1. Cc1ccc(NC(=O)C2CCCN(S(=O)(=O)c3ccc4c(c3)oc(=O)n4C)C2)nc1 (stereo not drawn)
2. CCOC(=O)C1=C(SCC(=O)Nc2ccccc2)NC(=O)C(C#N)C12CCCCC2 (stereo not drawn)

OUTPUT:
1: 1.09; 2: 1.71
